Data origin, for the record: ChEMBL document CHEMBL4715745

What GI50 was measured for each of the following?
# Test system: DU-145
# METHOD DESCRIPTION: Growth inhibition of human DU-145 cells measured after 48 hrs by sulforhodamine B assay
# Format: functional
Respond numerically; units are nM and should not be typed.

Recorded GI50 for `CC(C)[C@H]1NC(=O)C[C@H]2/C=C/CCSSC[C@@H](NC1=O)C(=O)N[C@@H](C)C(=O)NCC(=O)O2` , please?
15000

Entry `CC(C)[C@H]1NC(=O)C[C@H]2/C=C/CCSSC[C@@H](NC1=O)C(=O)N[C@@H](Cc1ccccc1)C(=O)NCC(=O)O2` has what GI50?
590

Would you kindly share the measured GI50 for `CC(C)[C@H]1NC(=O)C[C@H]2/C=C/CCSSC[C@@H](NC1=O)C(=O)N[C@H](C)C(=O)NCC(=O)O2` ?
21
